Target: human GPR35 (Homo sapiens)
Experiment: Luciferase Reporter Assay (YAP responsive element) in HEK293 cells stably transfected with human GPR35
Conditions: overnight incubation
reported_endpoint: IC50

>>> endpoint_value("O=C(Nc1ccc(OCc2cc(F)c(Cl)cc2F)cc1)c1coc2cc(-c3nnn[nH]3)c(F)cc12")
"100 to 1000 nM"
>>> endpoint_value("O=C(Nc1ccc(F)c(F)c1OC1CCCC1)c1coc2cc(-c3nnn[nH]3)ccc12")
"> 1000 nM"
>>> endpoint_value("O=C(Nc1ccc(N2CCC(F)(F)C2)c(F)c1)c1coc2cc(-c3nnn[nH]3)c(F)cc12")
"≤ 100 nM"
>>> endpoint_value("O=C(Nc1ccc(OCc2ccc(F)cc2Cl)cc1)c1coc2cc(-c3noc(=O)[nH]3)c(F)cc12")
"≤ 100 nM"
>>> endpoint_value("O=C(Nc1ccc(OCc2ccc(Cl)cn2)cc1)c1coc2cc(-c3nnn[nH]3)c(F)cc12")
"≤ 100 nM"
>>> endpoint_value("O=C(Nc1ccc(OCc2ccc(F)cc2Cl)cc1)c1coc2cc(Oc3nnn[nH]3)ccc12")
"> 1000 nM"

Next up:
## Input What does the record list as IC50 for O=C(Nc1ccc(OC(CF)CF)c(F)c1)c1coc2cc(-c3nnn[nH]3)c(F)cc12 ?
## Output 100 to 1000 nM

###

Molecular target: human GPR35 (Homo sapiens, UniProt Q9HC97)
Sequence (Q9HC97 whole entry): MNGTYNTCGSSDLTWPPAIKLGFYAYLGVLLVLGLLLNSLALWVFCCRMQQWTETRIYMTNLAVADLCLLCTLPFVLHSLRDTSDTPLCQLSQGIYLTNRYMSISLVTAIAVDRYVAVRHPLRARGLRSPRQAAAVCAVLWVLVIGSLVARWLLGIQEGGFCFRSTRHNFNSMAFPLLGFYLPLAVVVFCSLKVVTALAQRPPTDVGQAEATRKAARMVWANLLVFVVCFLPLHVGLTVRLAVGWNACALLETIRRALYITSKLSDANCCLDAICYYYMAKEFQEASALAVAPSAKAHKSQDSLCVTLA
Test: Luciferase Reporter Assay (YAP responsive element) in HEK293 cells stably transfected with human GPR35
Details: overnight incubation
Description: HEK293 cells stably transfected with human GPR35 were maintained in Dulbecco's Modified Eagle Medium (DMEM) supplemented with 10% FBS and 300 μg/mL Zeocin and 200 μg/mL Hygromycin at 37° C., 10% CO2. […] IC50 was determined by fitting the dose-response data to a four-parameter logistic curve using GraphPad Prism. […]
pIC50: −log10 of the molar value.
reported_endpoint: pIC50

>>> endpoint_value("O=C(Nc1ccc(O[C@H]2CCC(F)(F)C2)c(F)c1)c1coc2cc(-c3nnn[nH]3)c(F)cc12 (single isomer, unassigned)")
"≥ 7.00"
>>> endpoint_value("N#Cc1cc(Cl)ccc1COc1ccc(NC(=O)c2coc3cc(-c4nnn[nH]4)c(F)cc23)cc1")
"6.00 to 7.00"
>>> endpoint_value("O=C(Nc1ccc(OCc2ccc(Cl)cc2F)cc1)c1coc2cc(-c3nnn[nH]3)c(F)cc12")
"≥ 7.00"
>>> endpoint_value("C[C@@H](Oc1ccc(NC(=O)c2coc3cc(-c4nnn[nH]4)c(F)cc23)cc1)c1ccc(F)cc1Cl (single isomer, unassigned)")
"< 6.00"
>>> endpoint_value("O=C(Nc1ccc(OC2CCC2)c(F)c1)c1coc2cc(-c3nnn[nH]3)ccc12")
"≥ 7.00"
>>> endpoint_value("O=C(Nc1ccc(Oc2ccc(F)cc2Cl)cc1)c1coc2cc(-c3nnn[nH]3)c(F)cc12")
"6.00 to 7.00"

Moving on to another compound below.
## Input Please give the measured pIC50 for this compound: O=C(Nc1ccc(OCc2ccc(F)cc2Cl)cc1)c1coc2cc(OCc3nnn[nH]3)ccc12
## Output < 6.00

###

Target: human GPR35 (Homo sapiens)
Test: Luciferase Reporter Assay (YAP responsive element) in HEK293 cells stably transfected with human GPR35
Settings: overnight incubation
Measured IC50 of individual entries

The examples below pair each entry with its known result.
>>> endpoint_value("O=C(Nc1ccc(OCc2ccc(F)cc2Cl)cc1)c1coc2cc(-c3nnn[nH]3)c(F)cc12")
"≤ 100 nM"
>>> endpoint_value("O=C(Nc1ccc(OCc2ccc(F)cn2)cc1)c1coc2cc(-c3nnn[nH]3)c(F)cc12")
"100 to 1000 nM"
>>> endpoint_value("O=C(Nc1ccc(OCc2ccc(F)cc2Cl)cc1)c1coc2cc(-c3nnn[nH]3)ccc12")
"≤ 100 nM"
>>> endpoint_value("CC1(Oc2ccc(NC(=O)c3coc4cc(-c5nnn[nH]5)c(F)cc34)cc2F)CC1")
"≤ 100 nM"
>>> endpoint_value("O=C(Nc1ccc(OCc2c(F)cc(Cl)cc2F)cc1)c1coc2cc(-c3nnn[nH]3)c(F)cc12")
"100 to 1000 nM"

## Input # lookup: IC50 of O=C(Nc1ccc(OC2CCC2)c(F)c1)c1coc2cc(OCc3nnn[nH]3)ccc12
## Output > 1000 nM

## Input Same read-out for O=C(Nc1ccc(O[C@@H]2CCOC2)c(F)c1)c1coc2cc(-c3nnn[nH]3)c(F)cc12 ?
## Output > 1000 nM

## Input Same question, O=C(Nc1ccc(N2CCC[C@@H]2C(F)(F)F)c(F)c1)c1coc2cc(-c3nnn[nH]3)c(F)cc12 this time
## Output 100 to 1000 nM

## Input Thanks! And O=C(Nc1ccc(OCc2ccc(F)cc2Cl)c(F)c1)c1coc2c(-c3nnn[nH]3)cccc12 ?
## Output > 1000 nM
